Please provide measured Efficacy for the entries that follow.
- assayed-target: T1R2/T1R3 (Homo sapiens) (UniProt Q8TE23+Q7RTX0)
- procedure-text: Positive allosteric modulation of human TIR2/TIR3 expressed in PEAKrapid cells assessed as potentiation of sucrose-induced intracellular calcium influx by measuring sucrose EC50 at 30 uM measured for 120 secs by fluorescence based assay relative to FEMA4774
- Format: functional, cell-based
Express the reported value numerically, then name its unit.

-- ask // Efficacy lookup, key: CC(C)[C@H](N)C(=O)NC(C)(C)CC(=O)Nc1cncc(C(=O)O)c1N
-- reply 61%

-- ask // Efficacy lookup, key: CCCCCC(=O)NC(C)(C)CC(=O)Nc1cncc(C(=O)O)c1N
-- reply 65%

-- ask // Efficacy lookup, key: CC(C)(CC(=O)Nc1cncc(C(=O)O)c1N)NC(=O)C1CCNC1 (configuration not stated)
-- reply 55%

-- ask // Efficacy lookup, key: CC(C)(CC(=O)Nc1cncc(C(=O)O)c1N)NC(=O)CC1(CN)CCCCC1
-- reply 80%

-- ask // Efficacy lookup, key: CC(C)(CC(=O)Nc1cncc(C(=O)O)c1N)NC(=O)C1CCCCC1
-- reply 71%

-- ask // Efficacy lookup, key: CC(C)(CC(=O)Nc1cncc(C(=O)O)c1N)NC(=O)C1(N)CCCCC1
-- reply 59%

-- ask // Efficacy lookup, key: CCCCCCC(=O)NC(C)(C)CC(=O)Nc1cncc(C(=O)O)c1N
-- reply 59%

-- ask // Efficacy lookup, key: CC(C)(CC(=O)Nc1cncc(C(=O)O)c1N)NC(=O)CC[C@@H](N)Cc1ccccc1
-- reply 54%

-- ask // Efficacy lookup, key: CC(C)(CC(=O)Nc1cncc(C(=O)O)c1N)NC(=O)C[C@H]1CCNC1
-- reply 52%

-- ask // Efficacy lookup, key: CC(C)(CC(=O)Nc1cncc(C(=O)O)c1N)NC(=O)c1ccc(N)cc1
-- reply 56%

-- ask // Efficacy lookup, key: CC(C)(CC(=O)Nc1cncc(C(=O)O)c1N)NC(=O)[C@@H](N)c1ccccc1
-- reply 61%

-- ask // Efficacy lookup, key: CC[C@H](C)[C@H](NC(=O)[C@@H](NC(=O)OC(C)(C)C)C1CCCCC1)C(=O)NC(C)(C)CC(=O)Nc1cncc(C(=O)O)c1N
-- reply 84%
